This collection of values is drawn from PubChem BioAssay (NCI).

Tested on: A498 renal
method summary: NCI-60 one-dose screen, 48 h (100 = growth as untreated, 0 = no growth, -100 = all killed)
applied conditions: 10 µM unless noted
About 83,000 compounds went through this panel and 20% of them were active in at least one assay; those are over-represented in the sample as a whole. The source made the active and inactive calls. The calls were made as follows: active = growth percent below 10; inactive = the rest.
result type: growth

{"columns": ["molecule", "measured"],
 "data": [
  ["CCN(CCO)CCCOc1ccc2c(Nc3cc(CC(=O)Nc4cccc(F)c4)[nH]n3)ncnc2c1", "47.4% (inactive)"],
  ["Clc1ccc(C(Cn2ccnc2)OCc2ccsc2Cl)c(Cl)c1 (centres undefined)", "49.8% (inactive)"],
  ["COC1CCC(N2C(=O)CNc3ncc(-c4ccc(C(C)(C)O)nc4)nc32)CC1 (centres undefined)", "-23.8% (active)"],
  ["CC(=O)NCC(=O)N1[C@@H]2CC[C@H]1c1ccc(Nc3ncc(C(F)(F)F)c(NC4CCC4)n3)cc12", "14.7% [2.5 µM] (inactive)"]
]}

Quick one: growth of COc1cc2c(c(OC)c1)C1c3ccccc3NC(=O)N1CC2 (centres undefined) ?
-7.8% (active)

Okay, and Cc1cc([C@@H](C)Nc2ccccc2C(=O)O)c2nc(N3CCOCC3)cc(=O)n2c1 ?
-36.7% (active)

Now this one: O=C1CCC(=O)CC1
104% (inactive)

Param item: COc1ccc(C(=O)N2c3ccccc3Sc3ccccc32)c(F)c1
2.13% (active)

Do the same for COc1cc2ncnc(Oc3cccc(NC(=O)Nc4cc(C(C)(C)C(F)(F)F)on4)c3)c2cc1OC please
-24.9% (active)

What do you have for COC(=O)[C@H](Cc1ccc(O)cc1)NC(=O)[C@@H](OC)[C@@H]1Cc2cc3cc(OC4CC(OC5CC(O)C(O)C(C)O5)C(O)C(C)O4)c(C)c(O)c3c(O)c2C(=O)[C@H]1OC1CC(OC2CC(OC3CC(C)(O)C(O)C(C)O3)C(O)C(C)O2)C(O)C(C)O1 (some centres undefined) ?
-63.2% (active)
